Would you kindly list Mean relative activity for each of these molecules?
system: K562 CRISPRi cells; assay: Constant region variant library pooled growth screen, K562; format: cell-based, human; conditions: sgRNA constant region variants; activity relative to the original, un-modified constant region cr995

Data request: Entry under review: cr151 (nucleic acid, listed as DNA, chemistry not fully specified) guide: GTTTAAGAGCTAAGCTGGAAACAGCATAGCAACTTTAAATAAGGCTAGTCCGGTATCAACTTGAAAAAGTGGCACCGAGTCGGTGCT . Reported Mean relative activity?
Data returned: 0.03186

Data request: Please report the recorded Mean relative activity for cr879 (nucleic acid, listed as DNA, chemistry not fully specified) guide: GTTTAAGAGCTAAGCTGGAAACAGCATAGCAAGTTTAAATAAGGCGAGTCCGTCAGCAACTTGAAAAAGTGGCACCGAGTCGGTGCT .
Data returned: 0.798

Data request: Bench note: what Mean relative activity did cr084 (nucleic acid, listed as DNA, chemistry not fully specified) guide: GTCTGAGAGCTAAGCTGGAAACAGCATAGCAAGTTTAAATAAGGCTAGTCCGTTATCAACTTGAAAAAGTGGCACCGAGTCGGTGCT show?
Data returned: 0.09372

Data request: For the molecule shown here, cr492 (nucleic acid, listed as DNA, chemistry not fully specified) guide: GTTTAAGAGCTAAGCTGGAAACAGCATAGCAAGTTTAAATAAGGCTAGTCCGTTCTCAACTTGAAAAAGTGGCACCGAGTCGGTGCT , give the reported Mean relative activity.
Data returned: 1.034

Data request: What value of measured Mean relative activity is listed for cr178 (nucleic acid, listed as DNA, chemistry not fully specified) guide: GTTTAAGAGCTAAGCTGGAAACAGCATAGCAATTTTAAATGAGGCTAGTCCGTTATCGACTTGAAAAAGTGGCACCGAGTCGGTGCT ?
Data returned: −0.0008744

Data request: Which value of Mean relative activity has been reported for cr772 (nucleic acid, listed as DNA, chemistry not fully specified) guide: GTTTAAGAGCTAAGCTGGAAACAGCATAGCAAGTTTAAATAAGGCTAGTCCGTTATCAACTCGAAAGAGTGGCACCGAGTCGGTGCT in the records?
Data returned: 1.099

Data request: Item cr700 (nucleic acid, listed as DNA, chemistry not fully specified) guide: GTTTAAGAGCTAAGCTGGAAACAGCATAGCAAGTTTAAATTAGGCTAGTCCGTTATCAACTTGAAAAAGTGGCACCGCGTCGGTGCT has what recorded Mean relative activity?
Data returned: 0.02103
